system: U-251; assay: NCI tumour cell line growth inhibition, 48 h
Calls of active or inactive are those of the source. Cut-off read from the data, not from the text of the source: active = GI50 up to about 1.1 µM and inactive = higher.
Select the correct class. Options are active, inactive and nothing else.

Molecule	Class
COC(=O)CC(CC(=O)C(=O)OC)C(=O)OC (stereo unspecified)	inactive

Given CC1(C)C2CCC(=O)C1CC2 (stereo unspecified) , state the outcome it received in this test.
inactive

Given CCCN/C(N)=N/C#N , state the outcome it received in this test.
inactive

Given CC(=O)C(C)C(=O)N1C(=O)N(C)C2(C)N(C)C(=O)NC12C (stereo unspecified) , state the outcome it received in this test.
inactive

Given O=S(=O)(O)c1ccc2c(/N=N/c3ccccc3)c(O)ccc2c1 , state the outcome it received in this test.
inactive

Given COc1ccc(C(O)/C(=N/N)c2nc3ccc(Cl)cc3nc2O)cc1 (stereo unspecified) , state the outcome it received in this test.
inactive
